- EXPERIMENT_NOTES: protein stability index of a GFP-peptide fusion (GPS, HEK-293T) (PSI 1-6); higher = more stable;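 also: 24-mer peptide tiles fused after GFP, lentivirally expressed, FACS-sorted into six equal bins by GFP/DsRed ratio, decoded by Illumina sequencing, PSI is the read-weighted mean bin number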
- CONDITION: treatment: DMSO; c terminus: a fixed tail appended
Rule: protein stability index of 3 or more gives y; anything lower gives n.

Please tell me: is the sequence IHLSAPCIYSEVMEALDLQPGLSF [PCMTD2] at or over 3 in terms of protein stability index?
n

Form field: protein stability index at least 3? Entry: HTLAVMNDRLYAIGGNHLKGFSHL [KLHL14]
n

Given EVHERNDGIDPFPLLMNRQRVPKV [EFHC1] , state whether its protein stability index is at least 3.
y

Reported protein stability index reaches at least 3 for RHKSGVHQPPQAGAGDVVLLQREL [LYSMD4] ?
y

Is protein stability index for SRFYEIHARARDQGQPAMEGHCVI [PCDHGC5] at or above 3?
n

Dear colleague, could you confirm whether EDAVASADFSSMLSEEEKEELKAE [TPD52L1] has protein stability index at or above 3?
y

Answer whether protein stability index of NFSQPVAGRPSLLRHDEVRTYFHE [NLN] is greater than or equal to 3.
y

Does the reported protein stability index for PARAPPEPPHNLFCAPGSWEWNEL [SERTAD3] fall at or above the 3 mark?
y

Would you say FTLGDCDVIQALDLSVPLMDVGET [FKBP8] shows protein stability index at minimum 3?
y

Entry GTAPLNQETAEFFLSLDIPIGELY [ACSBG2] : is its protein stability index no less than 3?
n

I'd appreciate it if you could say whether ACYAGAAPAPSQVKSKAKKTVDKH [CEBPB] has protein stability index at least equal to 3.
y

Dear colleague, could you confirm whether ELLVAHAYTRYLGDLSGGQVLKKI [HMOX1] has protein stability index at or above 3?
n

protein stability index >= 3 for VGRGEVVTVRVPTHEEGSYLFWEF [ACBD3] ?
n
